[
  {
    "Mol smiles": "N#Cc1c(F)cccc1S(=O)(=O)N(Cl)Cl",
    "melting point": "149 to 152 °C"
  },
  {
    "Mol smiles": "CCC/C=C/S(=O)(=O)NC(=O)c1ccc2nc(C)n(Cc3ccc(N(C)C(=O)OCC)cc3Cl)c2n1",
    "melting point": "165 to 166 °C"
  },
  {
    "Mol smiles": "CONC(=O)c1ccc(-c2ccc3nnn(Cc4ccc5ncccc5c4)c3n2)cc1F",
    "melting point": "197 to 199 °C"
  }
]

----------
Parameter melting point: see the listing below.

[
  {
    "Compound": "O=C1CCC(c2ccc(F)cc2)CC1",
    "melting point": "104 to 106 °C"
  },
  {
    "Compound": "Cc1cc2c(s1)CCCC1CC(=O)N(c3ccccc3)N=C21 (configuration not stated)",
    "melting point": "102 to 103 °C"
  },
  {
    "Compound": "C[C@@H](NC(=O)c1cnn(-c2ccc(Cl)cc2)c1C(C)(C)C)[C@](O)(Cn1cncn1)c1ccc(F)cc1F",
    "melting point": "191 to 192 °C"
  },
  {
    "Compound": "c1ccc2c(c1)COC2=N[C@@H]1CCc2ccccc21",
    "melting point": "79 to 80 °C"
  },
  {
    "Compound": "O=C(Nc1cccc(Br)n1)c1cc(-c2ccc(F)cc2)n(C2CCCCO2)n1 (configuration not stated)",
    "melting point": "151 to 152 °C"
  },
  {
    "Compound": "O=C(CCCCCS(=O)(=O)Nc1ccccc1)NO",
    "melting point": "97 to 98 °C"
  },
  {
    "Compound": "CC(C)CC1(CC(=O)NO)CC(=O)N(CCc2ccccc2)C1=O (configuration not stated)",
    "melting point": "136 to 137 °C"
  },
  {
    "Compound": "CCCc1c(OCCCCCOc2ccc3ccc(OCC(=O)O)cc3c2CCC(=O)O)ccc2c1OCCC2=O",
    "melting point": "175 to 178 °C"
  },
  {
    "Compound": "Cc1cc(Cc2cnc(NCCCCc3ncc(Br)cc3C)[nH]c2=O)cnc1CO",
    "melting point": "136 to 141 °C"
  },
  {
    "Compound": "O=C(CNC(=O)C(Cc1ccccc1)NC(=O)C1CCCN1)Oc1c(Cl)c(Cl)c(Cl)c(Cl)c1Cl (configuration not stated)",
    "melting point": "182 to 184 °C"
  },
  {
    "Compound": "Cc1ccc(Oc2ccc([N+](=O)[O-])cc2)c(O)c1",
    "melting point": "95 to 97 °C"
  },
  {
    "Compound": "CSc1ccc(-c2nc(SC)ccc2-c2ccc(S(C)(=O)=O)cc2)cc1",
    "melting point": "175 °C"
  },
  {
    "Compound": "CC(=O)NCCc1coc2ccc3c(c12)CCCO3",
    "melting point": "162 °C"
  },
  {
    "Compound": "CCN1C(=O)N(c2cc(OC)cc(OC)c2F)Cc2cnc(NC3CCC(O)CC3)nc21 (configuration not stated)",
    "melting point": "198 to 204 °C"
  },
  {
    "Compound": "O=C1NC(=O)c2c(-c3ccccc3[N+](=O)[O-])ccc(-c3ccccc3)c21",
    "melting point": "224 to 226 °C"
  },
  {
    "Compound": "Cc1cc(C23CC4CC(CC(C4)C2)C3)ccc1NS(=O)(=O)c1cc([N+](=O)[O-])ccc1Cl",
    "melting point": "238 °C"
  },
  {
    "Compound": "CC(C)c1nc(O)c(Br)c(O)n1",
    "melting point": "> 250 °C"
  },
  {
    "Compound": "CN1Cc2c(-c3noc(CN)n3)ncn2-c2ccsc2C1=O",
    "melting point": "202 to 204 °C"
  },
  {
    "Compound": "CC(C)C(OC(=O)NC(C)(Cc1ccccc1)C(=O)NC(Cc1ccc(O)cc1)C(=O)NCCCCCCCO)c1ccccc1 (configuration not stated)",
    "melting point": "70 to 76 °C"
  },
  {
    "Compound": "CN(Cc1ccccc1)c1ccc(C(=O)O)nc1",
    "melting point": "168 to 173 °C"
  },
  {
    "Compound": "O=C(O)CCN1CCN(c2ccccc2Cl)CC1",
    "melting point": "210 to 213 °C"
  },
  {
    "Compound": "CN(C)CCCCOc1ccc(-c2nnc(CSCCOc3ccccc3)o2)cc1",
    "melting point": "62 to 63 °C"
  }
]
